test-summary: mouse pharmacokinetics, plasma and brain, I.P.
Assay type: in vivo
experimental-context: male, C57/BL6 J, ip, plasma, 2.65 mg/kg I.P.
measured-parameter: AUC(0-inf)

## Input Quick check: AUC(0-inf) of Nc1cccc2c1C(=S)N(C1CCC(=O)NC1=O)C2=O (stereo not shown) [3-MP, 3-monothiopomalidomide] ?
## Output 1440 ng·h/mL

====

test-summary: mouse pharmacokinetics, plasma and brain, I.P.
Type: in vivo
experimental-context: male, C57/BL6 J, ip, brain, 26.5 mg/kg I.P.
measured-parameter: Cmax (ng/g)
Note: unit ng/g is implicit; provide only the numeric part.

## Input Quick check: Cmax of Nc1cccc2c1C(=S)N(C1CCC(=O)NC1=O)C2=O (stereo not shown) [3-MP, 3-monothiopomalidomide] ?
## Output 4230

====

test-summary: LPS-induced inflammation in RAW 264.7 cells (viability, nitrite, TNF-α)
Assay type: cell-based, mouse
experimental-context: mouse, RAW 264.7 cells, RAW 264.7, 0.6 to 60 μM, LPS 20 ng/mL, MTS, read-out: cellular viability
measured-parameter: viability at 24 h

## Input Quick check: viability at 24 h of Nc1cccc2c1C(=S)N(C1CCC(=O)NC1=O)C2=O (stereo not shown) [3-MP, 3-monothiopomalidomide] ?
## Output > 90%

====

test-summary: mouse pharmacokinetics, plasma and brain, I.P.
Format: in vivo
experimental-context: male, C57/BL6 J, ip, plasma, 26.5 mg/kg I.P.
measured-parameter: AUC(0-inf) (ng·h/mL)
Note: unit ng·h/mL is implicit; provide only the numeric part.

## Input Quick check: AUC(0-inf) of Nc1cccc2c1C(=S)N(C1CCC(=O)NC1=O)C2=O (stereo not shown) [3-MP, 3-monothiopomalidomide] ?
## Output 20800

====

test-summary: mouse pharmacokinetics, plasma and brain, I.P.
Assay type: in vivo
experimental-context: male, C57/BL6 J, ip, plasma, 2.65 mg/kg I.P.
measured-parameter: AUC(0-t) (ng·h/mL)
Note: unit ng·h/mL is implicit; provide only the numeric part.

## Input Quick check: AUC(0-t) of Nc1cccc2c1C(=S)N(C1CCC(=O)NC1=O)C2=O (stereo not shown) [3-MP, 3-monothiopomalidomide] ?
## Output 1410

====

test-summary: mouse pharmacokinetics, plasma and brain, I.P.
Assay type: in vivo
experimental-context: male, C57/BL6 J, ip, plasma, 26.5 mg/kg I.P.
measured-parameter: AUC(0-t) (ng·h/mL)
Note: unit ng·h/mL is implicit; provide only the numeric part.

## Input Quick check: AUC(0-t) of Nc1cccc2c1C(=S)N(C1CCC(=O)NC1=O)C2=O (stereo not shown) [3-MP, 3-monothiopomalidomide] ?
## Output 20700

====

test-summary: mouse pharmacokinetics, plasma and brain, I.P.
Assay type: in vivo
experimental-context: male, C57/BL6 J, ip, brain, 2.65 mg/kg I.P.
measured-parameter: Cmax (ng/g)
Note: unit ng/g is implicit; provide only the numeric part.

## Input Quick check: Cmax of Nc1cccc2c1C(=S)N(C1CCC(=O)NC1=O)C2=O (stereo not shown) [3-MP, 3-monothiopomalidomide] ?
## Output 454
